These entries and their values trace back to ChEMBL document CHEMBL1148169.

# Tested on: Saccharomyces cerevisiae
# Test method notes: DNA damaging activity against RS322YK rad52 DNA repair gene deficient Saccharomyces cerevisiae mutant assessed as drug level required to produce 12 mm zone of inhibition after 48 hrs
# Format: functional

Compound: C[C@@H]1CCCC2=CC(=O)[C@@H]3[C@@H](C3(C)C)[C@]21C
IC12: 390 µg/mL
--
Compound: C[C@@H]1[C@@H]2C[C@@]3(C)C(=O)c4ccoc4C[C@@]13C(=O)O2 [NORPINGUISANOLIDE]
IC12: > 1000 µg/mL
--
Compound: CC1(C)CCC[C@]2(C)C3=C(COC3=O)C(=O)C[C@@H]12
IC12: > 1000 µg/mL
--
Compound: CC1(C)CCC[C@@]2(C)C1=CC(=O)C1=C2C(=O)OC1
IC12: > 1000 µg/mL
--
Compound: CC1(C)CCC[C@]2(C)[C@H]3C(=O)OCC3=CC[C@@H]12
IC12: 200 µg/mL
